# Test system: S. aureus (MRSA SAP0017)
# Type: cell-based, Staphylococcus aureus
# Experimental parameters: SPOT synthesized peptide, ~12.5 μM, clinical MRSA strain, crystal violet assay
Non-standard residues stand in square brackets, D forms with d. No end group written: not given here. Orn = NCCC[C@H](N)C(=O)O
Please respond with reported % Residual MRSA biofilm growth compared to untreated control for every item in the list.
Write the number in % without appending the unit.

Any idea what its % Residual MRSA biofilm growth compared to untreated control is? The substance is VRLIVOrnVRIWRR (VRLIV[Orn]VRIWRR-NH2; N-terminus assumed; SMILES CC[C@H](C)[C@H](NC(=O)[C@H](CCCNC(=N)N)NC(=O)[C@@H](NC(=O)[C@H](CCCN)NC(=O)[C@@H](NC(=O)[C@@H](NC(=O)[C@H](CC(C)C)NC(=O)[C@H](CCCNC(=N)N)NC(=O)[C@@H](N)C(C)C)[C@@H](C)CC)C(C)C)C(C)C)C(=O)N[C@@H](Cc1c[nH]c2ccccc12)C(=O)N[C@@H](CCCNC(=N)N)C(=O)N[C@@H](CCCNC(=N)N)C(N)=O) [Peptide 1018-k30]
27

Another substance to look at: VRLIVAVRIWROrn (VRLIVAVRIWR[Orn]-NH2; N-terminus assumed; SMILES CC[C@H](C)[C@H](NC(=O)[C@H](CCCNC(=N)N)NC(=O)[C@@H](NC(=O)[C@H](C)NC(=O)[C@@H](NC(=O)[C@@H](NC(=O)[C@H](CC(C)C)NC(=O)[C@H](CCCNC(=N)N)NC(=O)[C@@H](N)C(C)C)[C@@H](C)CC)C(C)C)C(C)C)C(=O)N[C@@H](Cc1c[nH]c2ccccc12)C(=O)N[C@@H](CCCNC(=N)N)C(=O)N[C@@H](CCCN)C(N)=O) [Peptide 1018-k36]
20

###

Please respond with reported MIC Sd for every item in the list.
# System: Streptococcus dysgalactiae (Sd)
# Type: cell-based
No end group written: not given here.
Write the number in mg/L without appending the unit.

State its MIC Sd on Streptococcus dysgalactiae (Sd): QLARLARVVWGL-NH2 [Peptide 3010, QLARLARVVWGL]
32

Another substance to look at: KIVIRIILQVIK-NH2 [Peptide 3015, KIVIRIILQVIK]
32

Another substance to look at: LWQLWLKLKLKG-NH2 [Peptide 3013, LWQLWLKLKLKG]
2

Another substance to look at: AVAKWALKLWKQ-NH2 [Peptide 3009, AVAKWALKLWKQ]
32

###

# Test system: MCP-1
# Assay method text: MCP-1 chemokine induction in human PBMCs, ELISA (Tables 6, 7; FIGS. 6-9, 13)
# Format: cell-based
# Experimental parameters: SPOT synthesized control peptides, determined as in Table 6; Table 7
Note: every record was labeled by where its MCPI production in PBMC sits among bin 0: < 200 pg/mL; bin 1: ≥ 200 pg/mL and < 700 pg/mL; bin 2: ≥ 700 pg/mL

Please classify: C22 (LLIAGKWWKLAI) [Peptide C22]
bin 0

Another substance to look at: C25 (IGQVVLVKIKIA) [Peptide C25]
bin 2

Another substance to look at: C48 (KVIKIVLVRVVK) [Peptide C48]
bin 2

Another substance to look at: C49 (WLKRIVKVVVLK) [Peptide C49]
bin 2

Another substance to look at: C53 (GKLKIKVKLGIA) [Peptide C53]
bin 0

Another substance to look at: C42 (AIGAARAWRQWA) [Peptide C42]
bin 0

Another substance to look at: C35 (IILKRVQVQKIK) [Peptide C35]
bin 1

Another substance to look at: C51 (VKWKGKVIVVQL) [Peptide C51]
bin 2

Another substance to look at: C14 (VKAKRWKWAQLA) [Peptide C14]
bin 1

Another substance to look at: C45 (QWLVKWVIIKVV) [Peptide C45]
bin 1

Another substance to look at: C28 (WIIRWIKIWLKI) [Peptide C28]
bin 1

Another substance to look at: C41 (KAVAGARQRWAL) [Peptide C41]
bin 1

Another substance to look at: C34 (WRIKKQWIQIIV) [Peptide C34]
bin 1

Another substance to look at: C40 (ALLAGRKRAVAV) [Peptide C40]
bin 0

Another substance to look at: C44 (LLKLKQKGIVIA) [Peptide C44]
bin 1

Another substance to look at: C30 (RGARVIRWKLRR) [Peptide C30]
bin 2

Another substance to look at: C54 (QVVVKKKAIQVV) [Peptide C54]
bin 1

Another substance to look at: C43 (AVIVRAAKGGAR) [Peptide C43]
bin 0

Another substance to look at: C19 (RLIQWGWKIWAV) [Peptide C19]
bin 2

Another substance to look at: C39 (KIKLIQKQLRIK) [Peptide C39]
bin 1

Another substance to look at: C47 (KVIQWIIVRRVL) [Peptide C47]
bin 2

Another substance to look at: C31 (RAIIKQRWQRRW) [Peptide C31]
bin 2

Another substance to look at: C56 (IIKWIVVRQIRK) [Peptide C56]
bin 0

Another substance to look at: C20 (KLLGILKQAIVV) [Peptide C20]
bin 0

Another substance to look at: C38 (RIWRRAWKARWK) [Peptide C38]
bin 1

Another substance to look at: C23 (LKKIIVQAVGLI) [Peptide C23]
bin 1

Another substance to look at: C29 (VIAKIVLLRAGL) [Peptide C29]
bin 2

Another substance to look at: C21 (VLLRVGARIVVG) [Peptide C21]
bin 1

Another substance to look at: C55 (VAKVKKARWRLR) [Peptide C55]
bin 1

Another substance to look at: C10 (QLRVAWKRAWWA) [Peptide C10]
bin 2

Another substance to look at: C32 (QRWKKWKVLKLR) [Peptide C32]
bin 2

Another substance to look at: C27 (KKAIKVVAIGRI) [Peptide C27]
bin 0

Another substance to look at: C12 (VIRAKAVWGWVK) [Peptide C12]
bin 1

Another substance to look at: C33 (KIWLLKLRQRQK) [Peptide C33]
bin 2

Another substance to look at: C24 (LKILIAQAKKGL) [Peptide C24]
bin 2

Another substance to look at: C17 (QQLRWKRVAKAI) [Peptide C17]
bin 2

Another substance to look at: C18 (IQIQLVKRWAVI) [Peptide C18]
bin 2

Another substance to look at: C13 (VARAVQKRWRKK) [Peptide C13]
bin 1

Another substance to look at: C16 (KKIRQWGKAAAW) [Peptide C16]
bin 1

Another substance to look at: C37 (QQKVIRLLWKAK) [Peptide C37]
bin 1

Another substance to look at: C15 (KRVQAKAWRLQR) [Peptide C15]
bin 1

Another substance to look at: C26 (VWLAQKIGKWIW) [Peptide C26]
bin 2

Another substance to look at: C52 (KIVQKKLRLVVI) [Peptide C52]
bin 1

Another substance to look at: C57 (KGKIRKIVLIRR) [Peptide C57]
bin 0

Another substance to look at: C50 (IKIVRRAKIIIW) [Peptide C50]
bin 1

###

# Test system: PBMCs
# Assay method text: Cytotoxicity towards PBMCs, lactate dehydrogenase (LDH) release assay (Tables 6, 7)
# Experimental parameters: SPOT synthesized peptide ~25 μM, PBMCs from 3 human donors; Table 6
No end group written: not given here.
Please respond with reported % Toxicity (LDH Release) for every item in the list.
Write the number in % without appending the unit.

State its % Toxicity (LDH Release) on PBMCs: ILVRWIRWRIQW-NH2 [Peptide 3002, ILVRWIRWRIQW]
−3.7

Another substance to look at: VLQIKKVLRLLL-NH2 [Peptide 3011, VLQIKKVLRLLL]
15.7

Another substance to look at: KIWGLLKLGIAL-NH2 [Imax-6, KIWGLLKLGIAL]
1.1

Another substance to look at: IKIIWKALGQVI-NH2 [Peptide 3024, IKIIWKALGQVI]
−1.7

Another substance to look at: VQWIQIVVWRKR-NH2 [BFmax-6, VQWIQIVVWRKR]
−4.4

Another substance to look at: RVKAIKWRKIVV-NH2 [Peptide 3012, RVKAIKWRKIVV]
2.8

###

Please respond with reported % Biofilm Inhibition for every item in the list.
# Tested on: S. aureus (MRSA SAP0017)
# Format: cell-based, Staphylococcus aureus
# Experimental parameters: SPOT synthesized control peptides, determined as in Table 5; Table 7
Non-standard residues stand in square brackets, D forms with d. No end group written: not given here. hArg = N=C(N)NCCCC[C@H](N)C(=O)O

Any idea what its % Biofilm Inhibition is? The substance is C36 (KRIKKLLKVVLK) [Peptide C36]
100%

Another substance to look at: C34 (WRIKKQWIQIIV) [Peptide C34]
99%

Another substance to look at: C84 (VRLIVA[hArg]RIWRR; not fully specified (C-terminus)) [Peptide C84]
105%

Another substance to look at: C80 (V[hArg]LIVAVRIWRR) [Peptide C80]
99%

Another substance to look at: C20 (KLLGILKQAIVV) [Peptide C20]
100%

Another substance to look at: C18 (IQIQLVKRWAVI) [Peptide C18]
100%
